measurement kind: IC50

Q: # get_value(readout= IC50, system= human DNA polymerase β (Homo sapiens)) for [N-]=[N+]=N[C@]1(COP(=O)(O)OP(=O)(O)OP(=O)(O)O)O[C@@H](n2ccc(=O)[nH]c2=O)[C@H](O)[C@@H]1O [Compound 4AUTP, 4′-azido-uridine triphosphate]
A: > 1000 µM

###

# System: ZIKV strain MR766 (Genbank LC002520)
# protocol summary: Antiviral activity against ZIKV replication in cells
# Format: cell-based, Zika virus
# run conditions: Zika virus; ZIKV strain MR766; human Huh-7 or mouse MEF cells
measurement kind: EC50

Q: Recorded EC50 of C[C@H](NP(=O)(OC[C@@]1(N=[N+]=[N-])O[C@@H](n2ccc(=O)[nH]c2=O)[C@H](O)[C@@H]1O)Oc1cccc2ccccc12)C(=O)OCc1ccccc1 (some centres unmarked) , please.
A: 0.74 µM

Q: Recorded EC50 of CCOC(=O)[C@H](C)NP(=O)(OC[C@@]1(N=[N+]=[N-])O[C@@H](n2ccc(=O)[nH]c2=O)[C@H](O)[C@@H]1O)Oc1cccc2ccccc12 (some centres unmarked) , please.
A: 0.48 µM

###

# system: human RNA polymerase II (Homo sapiens, UniProt P24928+P30876)
# Construct: endogenous in cells
# protocol summary: Human RNA polymerase II activity in cell extracts
measurement kind: IC50

Q: Recorded IC50 of [N-]=[N+]=N[C@]1(COP(=O)(O)OP(=O)(O)OP(=O)(O)O)O[C@@H](n2ccc(=O)[nH]c2=O)[C@H](O)[C@@H]1O [Compound 4AUTP, 4′-azido-uridine triphosphate] , please.
A: > 1000 µM

###

# system: human RNA polymerase I (Homo sapiens, UniProt O95602+Q9H9Y6)
# Construct: endogenous in cells
# protocol summary: Human RNA polymerase I activity in cell extracts
measurement kind: IC50

Q: Recorded IC50 of [N-]=[N+]=N[C@]1(COP(=O)(O)OP(=O)(O)OP(=O)(O)O)O[C@@H](n2ccc(=O)[nH]c2=O)[C@H](O)[C@@H]1O [Compound 4AUTP, 4′-azido-uridine triphosphate] , please.
A: > 1000 µM

###

# protocol summary: in vitro
# Format: cell-based
# run conditions: human; Huh-7 cell derived CHIKV replicon cells
measurement kind: CC50

Q: Recorded CC50 of CCOC(=O)[C@H](C)NP(=O)(OC[C@@]1(N=[N+]=[N-])O[C@@H](n2ccc(=O)[nH]c2=O)[C@H](O)[C@@H]1O)Oc1cccc2ccccc12 (some centres unmarked) [Compound I-3] , please.
A: > 100 µM

Q: Recorded CC50 of [N-]=[N+]=N[C@]1(CO)O[C@@H](n2ccc(=O)[nH]c2=O)[C@H](O)[C@@H]1O [Compound 4AU, 4′-azidouridine] , please.
A: > 1000 µM

###

# system: UniProt P54098
# Sequence (P54098 1-1239): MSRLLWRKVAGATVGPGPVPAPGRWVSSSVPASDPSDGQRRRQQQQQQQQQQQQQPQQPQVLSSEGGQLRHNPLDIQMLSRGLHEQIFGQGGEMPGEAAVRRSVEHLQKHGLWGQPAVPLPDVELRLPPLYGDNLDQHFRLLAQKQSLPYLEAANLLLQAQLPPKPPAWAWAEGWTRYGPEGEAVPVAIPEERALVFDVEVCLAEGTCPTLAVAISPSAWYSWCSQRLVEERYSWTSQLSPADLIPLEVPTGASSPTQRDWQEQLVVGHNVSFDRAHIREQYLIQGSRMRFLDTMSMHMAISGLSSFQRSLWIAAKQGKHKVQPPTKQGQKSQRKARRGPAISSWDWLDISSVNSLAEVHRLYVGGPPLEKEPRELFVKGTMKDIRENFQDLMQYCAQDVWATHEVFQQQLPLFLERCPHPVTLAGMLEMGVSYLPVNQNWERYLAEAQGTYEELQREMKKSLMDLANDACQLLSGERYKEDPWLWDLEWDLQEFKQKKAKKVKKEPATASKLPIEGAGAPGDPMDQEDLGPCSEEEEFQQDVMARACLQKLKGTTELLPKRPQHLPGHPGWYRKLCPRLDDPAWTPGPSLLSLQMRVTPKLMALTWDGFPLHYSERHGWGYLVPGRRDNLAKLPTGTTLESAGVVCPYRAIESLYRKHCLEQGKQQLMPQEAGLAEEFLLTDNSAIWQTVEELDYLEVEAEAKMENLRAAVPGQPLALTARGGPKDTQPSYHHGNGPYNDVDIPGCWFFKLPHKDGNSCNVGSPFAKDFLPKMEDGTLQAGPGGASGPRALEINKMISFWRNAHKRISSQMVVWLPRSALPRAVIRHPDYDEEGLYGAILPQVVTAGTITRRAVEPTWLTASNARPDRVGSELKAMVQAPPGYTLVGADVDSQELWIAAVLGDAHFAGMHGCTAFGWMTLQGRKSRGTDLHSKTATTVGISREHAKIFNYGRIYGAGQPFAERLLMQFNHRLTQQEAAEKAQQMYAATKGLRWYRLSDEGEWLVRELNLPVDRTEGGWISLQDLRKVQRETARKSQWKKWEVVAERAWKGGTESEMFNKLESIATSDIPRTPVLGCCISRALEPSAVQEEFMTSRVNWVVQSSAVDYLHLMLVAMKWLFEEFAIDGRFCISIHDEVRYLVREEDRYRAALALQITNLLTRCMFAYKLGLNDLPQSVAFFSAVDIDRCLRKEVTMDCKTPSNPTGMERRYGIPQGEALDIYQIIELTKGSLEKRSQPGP
# protocol summary: Inhibition of mitochondrial DNA polymerase pol γ
# Format: biochemical
# run conditions: read-out: DNA pol γ IC50
measurement kind: IC50

Q: Recorded IC50 of [N-]=[N+]=N[C@]1(COP(=O)(O)OP(=O)(O)OP(=O)(O)O)O[C@@H](n2ccc(=O)[nH]c2=O)[C@H](O)[C@@H]1O [Compound 4AUTP, 4′-azido-uridine triphosphate] , please.
A: > 1000 µM
